System: SF-539 CNS
PROCEDURE SUMMARY: NCI-60 one-dose screen, 48 h (100 = growth as untreated, 0 = no growth, -100 = all killed)
TEST CONTEXT: 10 µM
This is part of a sample that, as a whole, favours compounds with a hit. Of some 83,000 tested, about 20% had one in any assay. The source made the active and inactive calls. Rule for the calls: active = growth percent below 10; inactive = the rest.
Recorded growth, one value per entry.

Some molecules with known growth results, for comparison:
Query: Looking for the measured growth of Cc1cc(C)c(C(=O)OC(C)CNC2CCCCC2)c(C)c1 (stereo not given) , can you help?
Response: 99.2% (inactive)

Query: Name the reported growth value associated with the molecule "COc1ccc(S(=O)(=O)Nc2ccc(OCc3nnc(-c4ccc(Cl)cc4)o3)c(F)c2)cc1"
Response: 70.5% (inactive)

Query: Form field: reported growth of COc1ccc(C2C=C(c3ccc(Cl)c(Cl)c3)N=C3SC(C)=CN32)cc1OC (stereo not given)
Response: 90.7% (inactive)

Query: # growth lookup, item "COc1ccc(-c2n/c(=C\c3c(O)[nH]c4ccccc34)cc3c2=Nc2ccccc2-3)cc1"
Response: 82.6% (inactive)

Query: Requested field: growth. Item: "O=C(CSc1nnc(-c2ccc(Cl)cc2)o1)c1ccccc1"
Response: 91.4% (inactive)

Further cases:
Query: Name the reported growth value associated with the molecule "Nc1c(C(=O)NC2CCCCC2)sc2nc3c(cc12)C(=O)CCC3"
Response: 107% (inactive)

Query: Sample "COc1cc(-c2nc3cc(Cl)c(Cl)cc3[nH]2)ccc1OCC(=O)NN" — what was its growth?
Response: 80.5% (inactive)

###

Recorded growth values for a group of compounds are listed next.
Test system: SW-620 colon
PROCEDURE SUMMARY: NCI-60 one-dose screen, 48 h (100 = growth as untreated, 0 = no growth, -100 = all killed)
TEST CONTEXT: 10 µM
This is part of a sample that, as a whole, favours compounds with a hit. Of some 83,000 tested, about 20% had one in any assay.
Please reply with the bare figure in % and do not write the unit itself.

Query: # query: growth of entry "O=S(=O)(NC1c2ccccc2Oc2ccccc21)c1ccccc1"
Response: 97

Query: Give the measured growth of "COc1cc(-c2cc(-c3cc(OC)c(OC)c(OC)c3)nc3nc(N)[nH]c(=O)c23)ccc1Oc1ccnc2cc(Cl)ccc12" .
Response: 19.6

Query: growth; subject: "CC(C)C[C@H](NC(=O)Cn1ccc(Nc2ccccc2)cc1=O)B(O)O"
Response: 15

Query: What does the record list as growth for "Nc1ncncc1-c1ccc(F)cc1" ?
Response: 114

Query: Quick check: growth of "C/C(=N\NC(=O)c1sc(=S)n(C)c1N)c1cc2ccccc2o1" ?
Response: 81.3

Query: Given "COc1ccc(-c2cc(/C=C3\C(=O)Nc4cc(Cl)ccc43)[nH]n2)cc1" , state its recorded growth.
Response: 19.9

Query: Looking for the measured growth of COc1cccc(C(=O)N(c2ccc(F)c(F)c2)C(C(=O)NC(C)(C)C)c2cc3c(C)cc(C)cc3nc2Cl)c1 (stereo not given) , can you help?
Response: 78.6

Query: Any idea what its growth is? The compound is "Fc1ccc(Nc2ccnc(N3CCN(c4ccnc5cc(Cl)ccc45)CC3)n2)cc1"
Response: 63.2

Others:
Query: Query (compound): "COc1ccc2nc(-c3ccccc3)cc(C(C)=O)c2c1" ; field requested: growth
Response: 99.9

Query: What value of measured growth is listed for "Fc1ccc2[nH]c3c(NCCCN4CCOCC4)ncnc3c2c1" ?
Response: 69.6
